# assayInfo: Fraction unbound in plasma by equilibrium dialysis, human
# Type: in vitro ADME
observable: fraction unbound
Numbers only.

Asked: I would be grateful if you could share the reported fraction unbound for "COc1ccc(-n2nc(C(N)=O)c3c2C(=O)N(c2ccc(N4CCCCC4=O)cc2)CC3)cc1" .
Given back: 0.093

====

# testSystem: UniProt:P00740
# Sequence (P00740 227-461 limits assumed): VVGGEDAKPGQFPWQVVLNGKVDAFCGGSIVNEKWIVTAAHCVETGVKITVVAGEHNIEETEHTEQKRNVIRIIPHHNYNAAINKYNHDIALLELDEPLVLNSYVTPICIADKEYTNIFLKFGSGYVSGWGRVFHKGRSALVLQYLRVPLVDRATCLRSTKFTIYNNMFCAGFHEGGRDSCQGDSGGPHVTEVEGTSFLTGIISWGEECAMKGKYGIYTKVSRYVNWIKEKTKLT
# Sequence (P00740 47-191 partner limits assumed): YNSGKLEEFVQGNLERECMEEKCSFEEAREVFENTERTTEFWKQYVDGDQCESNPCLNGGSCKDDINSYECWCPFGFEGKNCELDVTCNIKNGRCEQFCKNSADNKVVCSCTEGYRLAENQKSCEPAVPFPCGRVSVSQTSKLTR
observable: Ki

Asked: Bench note: what Ki did COc1ccc(-n2nc(C(N)=O)c3c2C(=O)N(c2ccc(N4CCCCC4=O)cc2)CC3)cc1 [Apixaban] show?
Given back: > 30 µM

FYI, the data here is from paper PMC4777260.
